molecular target: T1, human GPC3-his tag protein (human, UniProt P51654 25-559, limits assumed); experiment: SPR Biacore 8K, mAb captured, affinity ranking
T1 construct: recombinant soluble antigen used as analyte in all Biacore runs; also called recombinant GPC3 protein; rhGPC3-His; not shown: His tag
MEASURE: kon (M⁻¹ s⁻¹)
Reply numerically in M⁻¹ s⁻¹, unit not repeated.

{"columns": ["BINDER", "MEASURE", "UNIT NAME", "ENDPOINT VALUE"],
 "data": [
  ["52H5D3B8-6#-VH3+VL3 (antibody, V domains shown, humanized) VH: QVQLVQSGAEVKKPGASVKVSCKALGYTFTDYEMHWVKQAPGQGLEWIGAIHPGSGGTAYNQKFKGRVTLTADTSTSTVYMELSSLRSEDTAVYYCTRYYSYAYWGQGTLVTVSS VL: DIVMTQTPLSLSVTPGQPASISCRSSQSLVHSNGNTYLQWYLQKPGQSPKLLIYKVSNRFSGVPDRFSGSGSGTDFTLKISRVEAEDVGVYYCFQSIHVPYTFGGGTKLEIK", "kon", "M⁻¹ s⁻¹", 714000]
]}

Field: next binder
Enquiry: Using the record for 52H5D3B8-6#-VH3+VL1 (antibody, V domains shown, humanized) VH: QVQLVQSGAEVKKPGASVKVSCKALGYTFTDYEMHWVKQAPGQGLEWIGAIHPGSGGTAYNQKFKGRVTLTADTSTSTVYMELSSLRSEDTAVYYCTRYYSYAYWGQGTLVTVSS VL: DIVMTQTPLSLSVTPGQPASISCRSSQSLVHSNGNTYLQWYLQKPGQSPQLLIYKVSNRFSGVPDRFSGSGSGTDFTLKISRVEAEDVGVYYCFQSIHVPYTFGGGTKLEIK , report its kon.
Return: 689000
